Kindly supply the reported aqueous solubility values for the records listed here.
condition_set: pH 6.8
Answer with a number only, understood to be in mg/mL.

Request: Request the reported aqueous solubility associated with Cc1cc(C)c(NC(=O)c2cc(Cl)ccc2F)c(C)n1
Response: 0.0628

Request: Request the reported aqueous solubility associated with O[C@@H]1C[C@@H](c2nc(-c3ccccc3)no2)N(Cc2ccccc2)C1
Response: 0.0416

Request: Request the reported aqueous solubility associated with COc1cc2c(cc1OC)-c1cc3ccc(OC)c(OC)c3c[n+]1CC2
Response: 0.0541

Request: Request the reported aqueous solubility associated with Cc1nccc(-c2cccc(NCC(=O)N(C)c3ccccc3)c2)n1
Response: 0.0382

Request: Request the reported aqueous solubility associated with Cc1noc(C)c1CS(=O)(=O)Cc1cccc2c1OCCO2
Response: 0.0533

Request: Request the reported aqueous solubility associated with c1ccc2[nH]c(SCc3cn4ccccc4n3)nc2c1
Response: 0.0449

Request: Request the reported aqueous solubility associated with Cc1ccc(-c2ccccc2-c2nc3c(cnn3C3CCN(C)CC3)[nH]2)o1
Response: 0.0405

Request: Request the reported aqueous solubility associated with O=C1CCCN1CCc1nc(-c2ccc3[nH]c(=O)oc3c2)cs1
Response: 0.059

Request: Request the reported aqueous solubility associated with Cn1ncnc1COc1nn2c(-c3c(F)cccc3F)nnc2cc1C1CCC1
Response: 0.0414

====

Kindly supply the reported log10 intrinsic clearance, rat liver microsomes values for the records listed here.
Give log10 of intrinsic clearance, rat liver microsomes, with intrinsic clearance, rat liver microsomes taken in L/h/kg.

Request: Request the reported log10 intrinsic clearance, rat liver microsomes associated with Cc1cc2c(s1)c1cnn(Cc3ccccc3F)c(=O)c1n2C
Response: 2.20

Request: Request the reported log10 intrinsic clearance, rat liver microsomes associated with COc1cccc(CN2Cc3ccccc3OC3(CCOCC3)C2)c1
Response: 1.98

Request: Request the reported log10 intrinsic clearance, rat liver microsomes associated with O=C(Cc1ccc(Cl)c(Cl)c1)N1CC(n2ccnn2)C1
Response: 0.49

Request: Request the reported log10 intrinsic clearance, rat liver microsomes associated with COc1ccc(C)cc1-n1ccc(C(=O)Nc2c3c(nn2C)CCC3)n1
Response: 1.18

Request: Request the reported log10 intrinsic clearance, rat liver microsomes associated with C[C@@H](c1ccccc1)N(C)C(=O)NCCN(C)CCO
Response: 1.84

Request: Request the reported log10 intrinsic clearance, rat liver microsomes associated with O=C(c1nccc2ccccc12)N1CCC(COc2ccccn2)CC1
Response: 2.51

Request: Request the reported log10 intrinsic clearance, rat liver microsomes associated with Cn1cc(NC(=O)[C@@H]2CCCCN2C(=O)OC(C)(C)C)cn1
Response: 0.23

====

Kindly supply the reported intrinsic clearance, rat liver microsomes values for the records listed here.
Answer with a number only, understood to be in mL/min/kg.

Request: Request the reported intrinsic clearance, rat liver microsomes associated with COc1ccc2nc(C)c(C(=O)Nc3ccccc3N3CCCC3)cc2c1
Response: 985

Request: Request the reported intrinsic clearance, rat liver microsomes associated with CON(C)C(=O)Cc1c(C)[nH]c2ccccc12
Response: 70.4

Request: Request the reported intrinsic clearance, rat liver microsomes associated with CCc1c(-c2ccccc2)[n+]([O-])c2c([n+]1[O-])CCCCC2
Response: 43.4

Request: Request the reported intrinsic clearance, rat liver microsomes associated with CCOc1ccc(Oc2ccc(OCc3cc(F)ccc3F)cc2)c(N)c1
Response: 104

Request: Request the reported intrinsic clearance, rat liver microsomes associated with COc1ccc(Nc2nc(N)nc(CN3CCN(Cc4ccccc4)CC3)n2)cc1
Response: 594

Request: Request the reported intrinsic clearance, rat liver microsomes associated with Cn1c2cc(S(C)=O)sc2c2cnn(Cc3cccc(N)c3)c(=O)c21 (configuration not stated)
Response: 49.6

Request: Request the reported intrinsic clearance, rat liver microsomes associated with CCN(CC)CCCNc1ncc(-c2cc(C)no2)c(-c2ccco2)n1
Response: 312

Request: Request the reported intrinsic clearance, rat liver microsomes associated with COCc1nn(CCCN2CCCCC2)c(=O)o1
Response: 370

Request: Request the reported intrinsic clearance, rat liver microsomes associated with COc1ccc2nc(NCc3cnn(C)c3)ccc2c1
Response: 88.6

Request: Request the reported intrinsic clearance, rat liver microsomes associated with COCC1CCN(c2noc(-c3cccs3)n2)CC1
Response: 325

Request: Request the reported intrinsic clearance, rat liver microsomes associated with O=C(CN1CCCN(c2ccc(C(F)(F)F)cn2)CC1)Nc1ccccc1Cl
Response: 1650

Request: Request the reported intrinsic clearance, rat liver microsomes associated with Cc1cc(C)n(-c2cccc(NC(=O)c3ccc(F)c(F)c3)c2)n1
Response: 353

Request: Request the reported intrinsic clearance, rat liver microsomes associated with CN(Cc1c(F)cccc1Cl)C(=O)C1(C#N)CCCC1
Response: 1250

Request: Request the reported intrinsic clearance, rat liver microsomes associated with C1CN(c2nc3c(c(N4CCSCC4)n2)SCC3)CCS1
Response: 1530

Request: Request the reported intrinsic clearance, rat liver microsomes associated with COc1cc(Br)c2c(=O)[nH]c(C)nc2c1
Response: 148

Request: Request the reported intrinsic clearance, rat liver microsomes associated with CN(Cc1cscn1)c1nc2c(cc1C#N)CCC2
Response: 1180

Request: Request the reported intrinsic clearance, rat liver microsomes associated with O=C(NCc1cccc(O)c1)Nc1nc(-c2ccncc2)cs1
Response: 246

Request: Request the reported intrinsic clearance, rat liver microsomes associated with CCCN(Cc1ccccc1)C(=O)CC1(N)CCC1
Response: 725

Request: Request the reported intrinsic clearance, rat liver microsomes associated with CCc1cc(CN(C)c2nccc(-c3ccc(C)nc3C)n2)on1
Response: 1690

Request: Request the reported intrinsic clearance, rat liver microsomes associated with CN(C)C(=O)OCCN1CCC(c2c[nH]c3ncccc23)CC1
Response: 101

Request: Request the reported intrinsic clearance, rat liver microsomes associated with Clc1ccc(CSc2nc(-c3ccccc3)c[nH]2)cn1
Response: 2880

====

Kindly supply the reported intrinsic clearance, rat liver microsomes values for the records listed here.

Request: Request the reported intrinsic clearance, rat liver microsomes associated with CCONC(=O)Cc1coc2c(C)c(C)ccc12
Response: 1060 mL/min/kg

Request: Request the reported intrinsic clearance, rat liver microsomes associated with Cc1ccc2oc(C(=O)N3CC[C@H](O)[C@@H](N4CCOCC4)CC3)cc2c1
Response: 1260 mL/min/kg

Request: Request the reported intrinsic clearance, rat liver microsomes associated with O=C(Nc1c(F)cccc1Oc1ccccc1)c1cnccn1
Response: 1080 mL/min/kg

Request: Request the reported intrinsic clearance, rat liver microsomes associated with Cc1nsc(Nc2ccccc2)c1C#N
Response: 782 mL/min/kg

Request: Request the reported intrinsic clearance, rat liver microsomes associated with Cc1csc(CN(C)c2ccnc(N(C)C)n2)n1
Response: 546 mL/min/kg

Request: Request the reported intrinsic clearance, rat liver microsomes associated with COCCN(Cc1cccs1)Cc1cccc(C)c1O
Response: 2100 mL/min/kg

Request: Request the reported intrinsic clearance, rat liver microsomes associated with N#Cc1ccc(OC2CCNCC2)cc1
Response: ≤ 10.7 mL/min/kg

Request: Request the reported intrinsic clearance, rat liver microsomes associated with Cc1csc(N(C(=O)c2ccc(-n3cncn3)c(F)c2)C2CC2)n1
Response: 215 mL/min/kg

Request: Request the reported intrinsic clearance, rat liver microsomes associated with CC1(C)CCCN1C(=O)c1c(F)cc(C#N)cc1F
Response: 69.7 mL/min/kg

Request: Request the reported intrinsic clearance, rat liver microsomes associated with Fc1cccc(N[C@H]2CCCN[C@H]2Cc2ccccc2)c1
Response: 658 mL/min/kg

Request: Request the reported intrinsic clearance, rat liver microsomes associated with COc1cc(OC)cc(N2CCC(NCC3(C)CCOCC3)CC2)c1
Response: 58.2 mL/min/kg

Request: Request the reported intrinsic clearance, rat liver microsomes associated with Cn1nc(-c2cn(Cc3ccc(CO)cc3)nn2)c2c(Cl)cccc21
Response: 190 mL/min/kg

Request: Request the reported intrinsic clearance, rat liver microsomes associated with O=C(Nn1cnc2ccccc21)c1cc(Cl)ccc1F
Response: ≤ 10.7 mL/min/kg

====

Kindly supply the reported intrinsic clearance, human liver microsomes values for the records listed here.

Request: Request the reported intrinsic clearance, human liver microsomes associated with Cc1ccc(F)cc1C(=O)N1CCc2c(nc(-c3ccccn3)nc2N(C)C)C1
Response: 0.524 L/h/kg

Request: Request the reported intrinsic clearance, human liver microsomes associated with Cc1cn[nH]c1C1(C)CCN(Cc2cnn(C)c2)CC1
Response: ≤ 0.284 L/h/kg

Request: Request the reported intrinsic clearance, human liver microsomes associated with c1cc(-c2noc(CN3CCOCC3)n2)ccn1
Response: ≤ 0.284 L/h/kg

Request: Request the reported intrinsic clearance, human liver microsomes associated with CO[C@H]1[C@H](C2(C)O[C@@H]2CC=C(C)C)[C@]2(CC[C@H]1OC(=O)/C=C/c1ccc(OCCN(C)C)cc1)CO2 (some centres not stated)
Response: 12.6 L/h/kg

Request: Request the reported intrinsic clearance, human liver microsomes associated with CC(C)c1nnc(CNc2ncc(Br)cn2)n1C
Response: ≤ 0.284 L/h/kg

Request: Request the reported intrinsic clearance, human liver microsomes associated with Oc1cncc(/C=C/c2nc(-c3ccncc3)no2)c1
Response: 1.91 L/h/kg

Request: Request the reported intrinsic clearance, human liver microsomes associated with COc1nc2c(cc1CNC(=O)N1CC[C@@H](O)C1)C(=O)N(C1CCCC1)C2
Response: ≤ 0.284 L/h/kg

Request: Request the reported intrinsic clearance, human liver microsomes associated with CCc1cnc(C)nc1-c1ccc(-c2ccn[nH]2)cc1
Response: ≤ 0.284 L/h/kg

Request: Request the reported intrinsic clearance, human liver microsomes associated with Cc1cnc(CNC2(c3nccs3)CCCC2)cn1
Response: ≤ 0.284 L/h/kg

Request: Request the reported intrinsic clearance, human liver microsomes associated with O=C(O)/C=C/c1ccc(Cn2ccnc2)cc1
Response: ≤ 0.284 L/h/kg

Request: Request the reported intrinsic clearance, human liver microsomes associated with Cn1cc(C(=O)N2CCC(c3cc(C(F)(F)F)c4c(n3)CCNC4=O)CC2)ccc1=O
Response: ≤ 0.284 L/h/kg

Request: Request the reported intrinsic clearance, human liver microsomes associated with CC(C)n1nnnc1-c1ccc(N)cc1F
Response: ≤ 0.284 L/h/kg
